- Test system: Staphylococcus aureus (ATCC 6538)
- TEST: Antimicrobial activity test by tube dilution method, bacteria
- Assay type: cell-based
- SETTINGS: Staphylococcus aureus, ATCC6538, 0.05 h; 50 mg sample in 1 ml DMSO, contact time 3 minutes; Soyabean Casein Digest Agar, 2 days at 30-35° C.; read-out: S. aureus % killing
QUANTITY_NAME: killing at 50000 µg/mL (%)
Give bare numbers, in %.

Please review the following examples before continuing.
                                   molecule                    subject_of_test  endpoint_value
0  COc1cc(/C=N/NC(=O)C23CC4CC(C2)CC(C(=O)N/N=C/c2cc(Br)c(O)c(OC)c2)(C4)C3)cc(Br)c1O  Staphylococcus aureus (ATCC 6538)             100
1  COc1ccc(/C=N\NC(=O)C23CC4CC(C2)CC(C(=O)N/N=C/c2ccc(OC)c(OC)c2)(C4)C3)cc1OC  Staphylococcus aureus (ATCC 6538)            50.2
2  C/C(=N/NC(=O)C12CC3CC(C1)CC(C(=O)N/N=C(\C)c1cc(C)ccc1O)(C3)C2)c1cc(C)ccc1O  Staphylococcus aureus (ATCC 6538)            82.9
3  O=C(N/N=C\c1cccs1)C12CC3CC(C1)CC(C(=O)N/N=C/c1cccs1)(C3)C2  Staphylococcus aureus (ATCC 6538)            93.4
4  CCOc1ccc(/C=N/NC(=O)C23CC4CC(C2)CC(C(=O)N/N=C/c2ccc(OCC)cc2)(C4)C3)cc1  Staphylococcus aureus (ATCC 6538)             100
5  CCOc1ccc(/C(C)=N\NC(=O)C23CC4CC(C2)CC(C(=O)N/N=C(\C)c2ccc(OCC)cc2)(C4)C3)cc1  Staphylococcus aureus (ATCC 6538)            16.8

Turning to the following compound.
Query :: Give me measured killing at 50000 µg/mL, please, for this compound: COc1ccc(/C=N/NC(=O)C23CC4CC(C2)CC(C(=O)N/N=C/c2ccc(OC)cc2)(C4)C3)cc1
Result :: 26.1

###

- Tested on: Staphylococcus aureus (ATCC 6538)
- TEST: Antimicrobial activity test by tube dilution method, bacteria
- Type: cell-based
- SETTINGS: Staphylococcus aureus, ATCC6538, 0.05 h; 50 mg sample in 1 ml DMSO, contact time 3 minutes; Soyabean Casein Digest Agar, 2 days at 30-35° C.; read-out: S. aureus % killing
Answer each item with its documented killing at 50000 µg/mL.
Please answer using the number first and the unit second.

Please review the following examples before continuing.
In [3]: df
Out[3]:
                                   molecule  endpoint_value
0  Cc1ccc(/C=N/NC(=O)C23CC4CC(C2)CC(C(=O)N/N=C/c2ccc(C)cc2)(C4)C3)cc1             85%
1  C/C(=N\NC(=O)C12CC3CC(C1)CC(C(=O)N/N=C(\C)c1ccc(O)cc1)(C3)C2)c1ccc(O)cc1           60.3%
2  O=C(N/N=C/c1ccc(Br)cc1)C12CC3CC(C1)CC(C(=O)N/N=C/c1ccc(Br)cc1)(C3)C2           88.7%
3  O=C(N/N=C\c1ccc2ccccc2c1)C12CC3CC(C1)CC(C(=O)N/N=C/c1ccc4ccccc4c1)(C3)C2           20.4%
4  O=C(N/N=C/c1ccc(O)cc1)C12CC3CC(C1)CC(C(=O)N/N=C/c1ccc(O)cc1)(C3)C2           97.2%

Turning to the following molecule.
Query :: Give me measured killing at 50000 µg/mL, please, for this molecule: COc1cc(/C=N\NC(=O)C23CC4CC(C2)CC(C(=O)N/N=C/c2ccc(O)c(OC)c2)(C4)C3)ccc1O
Result :: 90.3%

All values here come from patent US20250066288A1.
